molecular target: Glutamate carboxypeptidase 2 (Rattus norvegicus); test: Tested for Ac-Asp-[3,4-3H]-Glu-OH hydrolysis inhibitory activity against rat forebrain N-Acetylated alpha-linked Dipeptidase (NAALA Dipeptidase)
Residues, ends and D or L forms follow the SMILES beside them.
Readout Label: Ki (µM)
Give bare numbers, in µM.

Q: Query: Ki; subject: CC(=O)N[C@@H](CCC(=O)O)C(=O)N[C@@H](CCC(=O)O)C(=O)O (Ac-Glu-Glu-OH)
A: 3.5

----------
target: Glutamate carboxypeptidase 2 (Rattus norvegicus, UniProt P70627); experiment: Concentration required for 50%inhibition of Ac-Asp-[3,4-3H]-Glu-OH hydrolysis against rat forebrain N-acetylated-alpha-linked acidic dipeptidase
Sequence (P70627 whole entry): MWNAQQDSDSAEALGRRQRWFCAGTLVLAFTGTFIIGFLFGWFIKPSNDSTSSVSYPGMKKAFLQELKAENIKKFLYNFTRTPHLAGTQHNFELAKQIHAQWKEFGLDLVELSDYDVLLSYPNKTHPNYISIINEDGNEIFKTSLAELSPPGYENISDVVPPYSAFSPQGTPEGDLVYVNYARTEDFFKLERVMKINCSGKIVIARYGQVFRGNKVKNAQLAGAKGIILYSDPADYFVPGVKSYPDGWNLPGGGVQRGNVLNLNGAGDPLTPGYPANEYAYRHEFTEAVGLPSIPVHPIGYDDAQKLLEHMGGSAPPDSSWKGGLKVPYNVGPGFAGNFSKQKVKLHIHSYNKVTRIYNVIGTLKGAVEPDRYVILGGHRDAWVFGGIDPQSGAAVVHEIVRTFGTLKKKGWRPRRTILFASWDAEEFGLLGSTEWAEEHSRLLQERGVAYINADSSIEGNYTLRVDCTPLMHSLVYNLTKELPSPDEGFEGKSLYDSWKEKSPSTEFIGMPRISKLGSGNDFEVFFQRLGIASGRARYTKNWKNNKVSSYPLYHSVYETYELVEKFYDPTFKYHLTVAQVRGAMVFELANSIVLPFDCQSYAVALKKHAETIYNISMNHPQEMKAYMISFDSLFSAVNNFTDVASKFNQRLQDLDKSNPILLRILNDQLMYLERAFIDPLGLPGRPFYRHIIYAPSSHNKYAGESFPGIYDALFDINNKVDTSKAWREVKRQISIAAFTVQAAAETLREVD
Residues, ends and D or L forms follow the SMILES beside them.
Readout Label: IC50 (µM)
Give bare numbers, in µM.

Known IC50 results, listed for orientation:
molecule="CC(=O)N[C@@H](CC(=O)O)C(=O)N[C@@H](CC(=O)O)C(=O)O (Ac-Asp-Asp-OH)" unit_tag=µM result=250
molecule=O=C(O)/C=C\C(=O)N[C@@H](CCC(=O)O)C(=O)O unit_tag=µM result=83
molecule=CC(=O)N[C@@H](CC(=O)O)CC(=O)N[C@@H](CCC(=O)O)C(=O)O unit_tag=µM result=8
molecule=O=C(O)CCC(=O)N[C@@H](CCC(=O)O)C(=O)O unit_tag=µM result=2.5
molecule="CC(=O)N[C@@H](CCC(=O)O)C(=O)N[C@@H](CC(=O)O)C(=O)O (Ac-Glu-Asp-OH)" unit_tag=µM result=193

// for each molecule in input: emit IC50
1. CC(=O)N[C@@H](CC(=O)O)C(=O)N[C@@H](CCC(=O)O)CC(=O)O
2. O=C(O)/C=C/C(=O)N[C@@H](CCC(=O)O)C(=O)O

A:
[200, 0.8]

----------
target: Glutamate carboxypeptidase 2 (Rattus norvegicus, UniProt P70627); test: Tested for Ac-Asp-[3,4-3H]-Glu-OH hydrolysis inhibitory activity against rat forebrain N-acetylated-alpha-linked acidic dipeptidase
Could you please report measured Ki for the items listed next?

Please review the following examples before continuing.
structure_as_smiles=CC(=O)N[C@H](CC(=O)O)C(=O)N[C@@H](CCC(=O)O)C(=O)O tgt="Glutamate carboxypeptidase 2 (Rattus norvegicus, UniProt P70627)" result="8.5 µM"
structure_as_smiles=O=C(O)/C=C\C(=O)N[C@@H](CCC(=O)O)C(=O)O tgt="Glutamate carboxypeptidase 2 (Rattus norvegicus, UniProt P70627)" result="41 µM"
structure_as_smiles=O=C(O)/C=C/C(=O)N[C@@H](CCC(=O)O)C(=O)O tgt="Glutamate carboxypeptidase 2 (Rattus norvegicus, UniProt P70627)" result="0.4 µM"

For each listed entry, give its Ki.
1. CC(=O)N[C@@H](CC(=O)O)CC(=O)N[C@@H](CCC(=O)O)C(=O)O
2. O=C(O)CCC(=O)N[C@@H](CCC(=O)O)C(=O)O

A:
1. 3.2 µM
2. 0.9 µM
